Molecular target: D2 receptors (Homo sapiens)
Sequence (P14416 1-414 isoform P14416-2): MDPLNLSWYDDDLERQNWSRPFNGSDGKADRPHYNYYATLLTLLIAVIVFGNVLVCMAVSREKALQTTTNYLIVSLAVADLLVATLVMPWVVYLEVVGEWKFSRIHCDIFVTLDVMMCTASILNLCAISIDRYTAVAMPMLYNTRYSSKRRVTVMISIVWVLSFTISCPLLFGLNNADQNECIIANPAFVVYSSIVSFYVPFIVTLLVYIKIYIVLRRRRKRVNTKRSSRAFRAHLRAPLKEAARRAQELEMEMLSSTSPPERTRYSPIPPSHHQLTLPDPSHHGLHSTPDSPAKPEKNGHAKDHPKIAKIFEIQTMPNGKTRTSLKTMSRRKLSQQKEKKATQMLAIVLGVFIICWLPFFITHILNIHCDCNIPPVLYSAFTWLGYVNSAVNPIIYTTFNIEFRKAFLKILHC
Experiment: BRET2 beta-arrestin-2 recruitment assay at D2
Type: cell-based
Design: expressed in transfected cells; host or cells: HEK-293T
Conditions: percent response of reference ligand dopamine; mean ± SEM
The following molecules are shown together with reported BRET2 Eff % values.
Express it in %; write the number only.

Before answering, review these 2 worked examples.
Clc1ccc2c(c1)N=C(N1CCNCC1)c1ccccc1N2 : 0
CCCN1CCC[C@H](c2cccc(S(C)(=O)=O)c2)C1 [(+)-OSU6162] : 0

Quick one: BRET2 Eff % of CCCN1CCC[C@@H](c2cccc(S(C)(=O)=O)c2)C1 [(−)-OSU6162] ?
0

Quick one: BRET2 Eff % of CCCN1CCCC(c2cccc(O)c2)C1 (single isomer, unassigned; (+)) [(+)-3-PPP] ?
58

Quick one: BRET2 Eff % of CCN(CC)C(=O)N[C@H]1C[C@@H]2c3cccc4[nH]cc(c34)C[C@H]2N(C)C1 [(+)-Terguride] ?
8

Quick one: BRET2 Eff % of CCCN1C[C@H](CSC)C[C@@H]2c3cccc4[nH]cc(c34)C[C@H]21 [Pergolide] ?
64
